test system: HCI-027 (organoid from a triple-negative breast cancer xenograft); test: CTG-3D luminescence at 96 h relative to day-0 seeding control (ratio to day 0); higher = more growth / less cytotoxicity; PDxO 3D drug screen (set 2), 96 h, CTG-3D normalised to day-0 seeding control.; settings: 100 µM; days in culture: 176
reported_metric: CTG-3D luminescence at 96 h
A bare number is all that is needed in reply.

// worked examples, CTG-3D luminescence at 96 h included
O=C(c1cc(Cc2n[nH]c(=O)c3ccccc23)ccc1F)N1CCN(C(=O)C2CC2)CC1 = 0.452
C[C@@H](Nc1cc(F)cc(F)c1)c1cc(C(=O)N(C)C)cc2c(=O)cc(N3CCOCC3)oc12 = 0.201
CO[C@H]1C[C@@H]2CC[C@@H](C)[C@@](O)(O2)C(=O)C(=O)N2CCCC[C@H]2C(=O)O[C@H]([C@H](C)C[C@@H]2CC[C@@H](OCCO)[C@H](OC)C2)CC(=O)[C@H](C)/C=C(\C)[C@@H](O)[C@@H](OC)C(=O)[C@H](C)C[C@H](C)/C=C/C=C/C=C/1C = 0.000718

With those in mind, consider the next compound.
Ask: Returns the measured CTG-3D luminescence at 96 h for the input compound. Input: CC(C)n1nc(-c2ccc3oc(N)nc3c2)c2c(N)ncnc21
Reply: 0.195

====

tested on: HCI-001 (organoid from a triple-negative breast cancer xenograft); assay: CTG-3D luminescence at 96 h relative to day-0 seeding control (ratio to day 0); higher = more growth / less cytotoxicity; PDxO 3D drug screen, 96 h, CTG-3D normalised to day-0 seeding control.; settings: 0.005 µM; days in culture: 327
If the reported CTG-3D luminescence at 96 h equals or exceeds 2, assign yes (1). If not, assign no (0).

Illustrative cases are given below, each with its answer.
CS(=O)(=O)c1ccc(C(=O)Nc2ccc(Cl)c(-c3ccccn3)c2)c(Cl)c1 [vismodegib] = yes (1)
O=C(/C=C/c1cccnc1)NCCCCC1CCN(C(=O)c2ccccc2)CC1 [FK866] = no (0)
CNC(=O)c1cccc(-c2ccc3c(N4CCOC[C@@H]4C)nc(N4CCOC[C@@H]4C)nc3n2)c1 [vistusertib] = no (0)
COc1cc2c(Oc3ccc4[nH]c(C)cc4c3F)ncnc2cc1OCCCN1CCCC1 [cediranib] = no (0)
CC1(C)CCC(c2ccc(Cl)cc2)=C(CN2CCN(c3ccc(C(=O)NS(=O)(=O)c4ccc(N[C@H](CCN5CCOCC5)CSc5ccccc5)c(S(=O)(=O)C(F)(F)F)c4)cc3)CC2)C1 [navitoclax] = yes (1)

Ask: Decide: is the reported value of CTG-3D luminescence at 96 h for CC[C@H](NC(=O)[C@H](C)NC)C(=O)N1C[C@@H](O)C[C@H]1Cc1c(-c2[nH]c3cc(F)ccc3c2C[C@@H]2C[C@H](O)CN2C(=O)[C@H](CC)NC(=O)[C@H](C)NC)[nH]c2cc(F)ccc12 [birinapant] equal to or greater than 2?
Reply: no (0)

Ask: Decide: is the reported value of CTG-3D luminescence at 96 h for CC(C)(C(=O)NCC(F)(F)C(F)(F)F)C(=O)N[C@@H]1C(=O)Nc2ccccc2-c2ccccc21 equal to or greater than 2?
Reply: no (0)

Ask: Decide: is the reported value of CTG-3D luminescence at 96 h for C[C@@H]1COCCN1c1cc(C2([S@](C)(=N)=O)CC2)nc(-c2cc[nH]c3nccc2-3)n1 [ceralasertib] equal to or greater than 2?
Reply: no (0)

Ask: Decide: is the reported value of CTG-3D luminescence at 96 h for CCc1c2c(nc3ccc(O)cc13)-c1cc3c(c(=O)n1C2)COC(=O)[C@]3(O)CC [SN-38] equal to or greater than 2?
Reply: no (0)

Ask: Decide: is the reported value of CTG-3D luminescence at 96 h for C[C@H](NC(=O)CCC(F)(F)F)C(=O)N[C@@H]1C(=O)N(CCO)c2ncccc2-c2ccccc21 [crenigacestat] equal to or greater than 2?
Reply: no (0)

Ask: Decide: is the reported value of CTG-3D luminescence at 96 h for C=CCn1c(=O)c2cnc(Nc3ccc(N4CCN(C)CC4)cc3)nc2n1-c1cccc(C(C)(C)O)n1 [adavosertib] equal to or greater than 2?
Reply: no (0)

====

tested on: HCI-002 (organoid from a triple-negative breast cancer xenograft); assay: CTG-3D luminescence at 96 h relative to day-0 seeding control (ratio to day 0); higher = more growth / less cytotoxicity; PDxO 3D drug screen, 96 h, CTG-3D normalised to day-0 seeding control.; settings: 0.005 µM; days in culture: 209
reported_metric: CTG-3D luminescence at 96 h
A bare number is all that is needed in reply.

// worked examples, CTG-3D luminescence at 96 h included
C[C@@H]1COCCN1c1cc(C2([S@](C)(=N)=O)CC2)nc(-c2cc[nH]c3nccc2-3)n1 = 1.9
CC[C@H](NC(=O)[C@H](C)NC)C(=O)N1C[C@@H](O)C[C@H]1Cc1c(-c2[nH]c3cc(F)ccc3c2C[C@@H]2C[C@H](O)CN2C(=O)[C@H](CC)NC(=O)[C@H](C)NC)[nH]c2cc(F)ccc12 = 1.88
Cc1cc(Nc2ncc(Cl)c(Nc3ccccc3S(=O)(=O)C(C)C)n2)c(OC(C)C)cc1C1CCNCC1 = 2.23
C[C@]12CC[C@@H]3c4ccc(O)cc4C[C@@H](CCCCCCCCC[S+]([O-])CCCC(F)(F)C(F)(F)F)[C@H]3[C@@H]1CC[C@@H]2O (stereo partly specified) = 2.46

Ask: Returns the measured CTG-3D luminescence at 96 h for the input compound. Input: Cc1nc(-c2cn3c(n2)-c2ccc(-c4cnn(C(C)(C)C(N)=O)c4)cc2OCC3)n(C(C)C)n1
Reply: 2.09

Ask: Returns the measured CTG-3D luminescence at 96 h for the input compound. Input: CC(C)n1nc(-c2ccc3oc(N)nc3c2)c2c(N)ncnc21
Reply: 2.27

====

Recorded measurements of CTG-3D luminescence at 96 h, one per entry
system: HCI-001; test: CTG-3D luminescence at 96 h relative to day-0 seeding control (ratio to day 0); higher = more growth / less cytotoxicity; PDxO 3D drug screen, 96 h, CTG-3D normalised to day-0 seeding control.; settings: 10 µM; days in culture: 327

// worked examples, CTG-3D luminescence at 96 h included
Cc1cc(Nc2ncc(Cl)c(Nc3ccccc3S(=O)(=O)C(C)C)n2)c(OC(C)C)cc1C1CCNCC1 = 0.164
C[C@]12CC[C@@H]3c4ccc(O)cc4C[C@@H](CCCCCCCCC[S+]([O-])CCCC(F)(F)C(F)(F)F)[C@H]3[C@@H]1CC[C@@H]2O (stereo partly drawn) = 1.23
COc1cc2c(Oc3ccc4[nH]c(C)cc4c3F)ncnc2cc1OCCCN1CCCC1 = 0.433
C[C@H](NC(=O)CCC(F)(F)F)C(=O)N[C@@H]1C(=O)N(CCO)c2ncccc2-c2ccccc21 = 1.06
CNC(=O)c1cccc(-c2ccc3c(N4CCOC[C@@H]4C)nc(N4CCOC[C@@H]4C)nc3n2)c1 = 0.485
NC(=O)Nc1cc(-c2cccc(F)c2)sc1C(=O)N[C@H]1CCCNC1 = 0.168

Ask: Returns the measured CTG-3D luminescence at 96 h for the input molecule. Input: C=CCn1c(=O)c2cnc(Nc3ccc(N4CCN(C)CC4)cc3)nc2n1-c1cccc(C(C)(C)O)n1
Reply: 0.193

Ask: Returns the measured CTG-3D luminescence at 96 h for the input molecule. Input: CC(=O)O[C@H]1C(=O)[C@@]2(C)[C@H]([C@H](OC(=O)c3ccccc3)[C@]3(O)C[C@H](OC(=O)[C@H](O)[C@@H](NC(=O)c4ccccc4)c4ccccc4)C(C)=C1C3(C)C)[C@]1(OC(C)=O)CO[C@@H]1C[C@@H]2O
Reply: 0.714

====

system: HCI-027; assay: CTG-3D luminescence at 96 h relative to day-0 seeding control (ratio to day 0); higher = more growth / less cytotoxicity; PDxO 3D drug screen, 96 h, CTG-3D normalised to day-0 seeding control.; conditions: 0.1 µM; days in culture: 201
reported_metric: CTG-3D luminescence at 96 h
A bare number is all that is needed in reply.

// worked examples, CTG-3D luminescence at 96 h included
CC(C)(C(=O)NCC(F)(F)C(F)(F)F)C(=O)N[C@@H]1C(=O)Nc2ccccc2-c2ccccc21 = 0.358
COc1cc2c(Oc3ccc4[nH]c(C)cc4c3F)ncnc2cc1OCCCN1CCCC1 = 1.87
Cc1cc(Nc2ncnc3ccc(NC4=NC(C)(C)CO4)cc23)ccc1Oc1ccn2ncnc2c1 = 2.28

Ask: Returns the measured CTG-3D luminescence at 96 h for the input compound. Input: C/C=C1\NC(=O)[C@H]2CSSCC/C=C/[C@H](CC(=O)N[C@H](C(C)C)C(=O)N2)OC(=O)[C@H](C(C)C)NC1=O
Reply: 0.611

Ask: Returns the measured CTG-3D luminescence at 96 h for the input compound. Input: C=CC(=O)N1CCC[C@@H](n2nc(-c3ccc(Oc4ccccc4)cc3)c3c(N)ncnc32)C1
Reply: 1.93

Ask: Returns the measured CTG-3D luminescence at 96 h for the input compound. Input: Cc1nc(-c2cn3c(n2)-c2ccc(-c4cnn(C(C)(C)C(N)=O)c4)cc2OCC3)n(C(C)C)n1
Reply: 1.88
